system: CAKI-1; experiment: NCI tumour cell line growth inhibition, 48 h
Active and inactive are the calls of the source. No stated cut-off is given here; in the data, active = GI50 up to about 1.1 µM and inactive = higher.
Outcomes you can answer with include only these: active, inactive

Dear all, I need the recorded test outcome for O=C1C(NS(=O)(=O)c2ccccc2)=C(N(Cc2ccccc2)Cc2ccccc2)C(=O)c2ccccc21 , thank you.
inactive

Give the logged outcome of this assay for the following compound: O=C(NCc1cccc2ccccc12)N/N=C\c1ccc(Cl)cc1
inactive

Short answer needed: outcome of this test for Cc1ccc(NC(=O)c2cccc(OP(=O)(O)Nc3ccc(C)cc3)c2)cc1 ?
inactive

Tell me the recorded outcome of this test for CO[C@@H]1C=C[C@@]23c4cc5c(cc4C(O)N(CC2O)C3C1)OCO5 (stereo partly drawn) .
inactive

Test call, this compound: COC(=O)CC(=O)OC1C[C@@H]2CCC3C(C)(C)CCC[C@]3(C)C23CC[C@@]1(C)C3 (stereo partly drawn)
inactive

What outcome does the record of this test show for Brc1ccc2[nH]cc([C@@H]3CN[C@@H](c4c[nH]c5ccc(Br)cc45)CN3)c2c1 ?
inactive

What is the recorded call for this compound in the test? OC[C@H]1O[C@@H](Oc2cc(O)cc(/C=C/c3ccc(O)cc3)c2)[C@H](O)[C@@H](O)[C@@H]1O [PICEID]
inactive

----------
system: OVCAR-8; test: NCI tumour cell line growth inhibition, 48 h
Calls of active or inactive are those of the source. Rule as the data show it: active = GI50 up to about 1.1 µM and inactive = higher.
Outcome field: choose from active, inactive

Cc1[nH]c(-c2ccccc2)c2nc(N(C)C)oc(=O)c12: inactive

Please let me know the test result on file for O=C1C2=C(SCCS2)C(=O)c2c(Sc3ccc(Cl)cc3)c(Sc3ccc(Cl)cc3)c(Sc3ccc(Cl)cc3)c(Sc3ccc(Cl)cc3)c21 .
inactive

How did this test come out for O=C1c2ccccc2C(=O)N1C/C=N/NS(=O)(=O)c1ccc(Br)cc1 ?
inactive

Outcome logged for Cc1ccc(-c2ccc3c(c2)Sc2ccccc2O3)n1C in this assay:
active

----------
Measured GI50 values are reported for all entries that follow.
system: Malme-3M; assay: NCI tumour cell line growth inhibition, 48 h
Active and inactive are the calls of the source. Cut-off read from the data, not from the text of the source: active = GI50 up to about 1.1 µM and inactive = higher.

CNc1ccc([N+](=O)[O-])c2c(NCCCN(C)C)ccnc12: > 100 µM (inactive)
Cc1nn2c(C(=O)N/N=C/c3ccccc3O)c(C)nc2s1: > 100 µM (inactive)
CCOC(=O)C(C)Sc1nnc(COc2ccc(Cl)cc2)n1-c1ccccc1 (centres undefined): 25.8 µM (inactive)

# input for lookup
Summary for this molecule, Cc1ccc(NC(=O)c2cccc(OP(=O)(O)Nc3ccc(C)cc3)c2)cc1 : GI50 is > 100 µM (inactive)

----------
tested on: SK-OV-3; assay: NCI tumour cell line growth inhibition, 48 h
Activity calls are given as the source filed them. No stated cut-off is given here; in the data, active = GI50 up to about 1.1 µM and inactive = higher.
I would appreciate it if you answered using one of these outcomes: active, inactive

Check out these entries, answers already filled in.
COc1ccc(C2=CC(c3ccc4c(c3)OCO4)c3c(c4ccccc4oc3=O)O2)cc1OC (configuration not stated): active
Cc1ccccc1/N=N/c1c(O)ccc2ccccc12: inactive
N#C/C=C(/NC(=O)Nc1ccccc1)N1CCCC1: inactive
CCOC(=O)NC(Nc1ccc(C)cc1)(C(F)(F)F)C(F)(F)F: inactive
O[C@H]1[C@H](O)[C@@H](O)[C@H](O)[C@@H](O)[C@H]1O [INOSITOL]: inactive

Here's the next entry for you.
Could you check what this test reported for COc1cc2c(c(OC)c1OC)CCNC2C1=C(O)COC1=O (configuration not stated) ?
inactive

----------
system: SR; assay: NCI tumour cell line growth inhibition, 48 h
Calls of active or inactive are those of the source. No stated cut-off is given here; in the data, active = GI50 up to about 1.1 µM and inactive = higher.
Outcome (select one): T = active, F = inactive

CCOC(=O)C1=C(C#N)S(=O)(=O)c2c(oc(C)c2C)N1: F
CC[n+]1c(/C=C/c2ccc(N(CCCl)CCCl)cc2)ccc2cc(NC(=O)/C=C/c3ccccc3)ccc21: T
COC1(OC)C=CC(=O)C=C1: T

// outcome(item) with item = COC(=O)CCC(=O)C(C#N)c1ccc(Cl)cc1Cl (centres undefined)
F

----------
test system: A549; test: NCI tumour cell line growth inhibition, 48 h
The source made the active and inactive calls. Rule as the data show it: active = GI50 up to about 1.1 µM and inactive = higher.
Pick from true (1) (active), false (0) (inactive) when you respond.

Before answering, review these 3 worked examples.
N#C/C(=C\c1ccc(Cl)cc1)c1nc2ccccc2c(=O)[nH]1: false (0)
CC(C)OP(=O)(OC(C)C)/C(N)=N/Nc1ccc([N+](=O)[O-])cc1: false (0)
Cc1ccc(-c2ccc3c(c2)Sc2ccccc2O3)n1C: true (1)

Let's switch to this compound now.
# fetch the recorded call for O=c1oc2ccccc2n1P(=O)(Oc1ccc(Cl)cc1)n1c(=O)oc2ccccc21 here
false (0)

----------
test system: SK-MEL-2; test: NCI tumour cell line growth inhibition, 48 h
Activity calls are given as the source filed them. Cut-off read from the data, not from the text of the source: active = GI50 up to about 1.1 µM and inactive = higher.
value type: GI50

Below: 5 molecules and their reported GI50.
O=C(c1ccccc1)c1ccc2[nH]c(-c3c(Cl)c(Cl)c(Cl)c(Cl)c3C(=O)Nc3ccco3)nc2c1: 20.9 µM (inactive)
O=C1C[C@@H](c2ccc(O)cc2)[C@@]2(O1)C(=O)O[C@H]([C@@H](O)CO)[C@@H]2O: > 100 µM (inactive)
O=C1C(Br)=C(c2ccccc2)C(c2ccccc2)=C1c1ccccc1: 4.41 µM (inactive)
CC(C)(Cl)C(Cl)CC/C(CBr)=C(\Cl)CCl (stereo unspecified): 2.47 µM (inactive)
O=C(/C=C(\O)C(=O)O)/C=C(\O)c1ccccc1: > 4.65 µM (inactive)

Pending molecule:
// assay SK-MEL-2, entry Cc1c(C#N)c(N)[nH]c(=S)c1C#N , GI50 value = > 100 µM (inactive)

----------
test system: HCT-116; test: NCI tumour cell line growth inhibition, 48 h
The source made the active and inactive calls. Cut-off read from the data, not from the text of the source: active = GI50 up to about 1.1 µM and inactive = higher.
Respond only with the outcome that fits, drawn from active, inactive

Below, 5 molecules whose answers are already recorded.
COc1ccc(-c2cn3ccsc3n2)cc1: inactive
CCCCOCN/C(N)=N/C#N: inactive
Clc1cc(OCc2nn3c(Cc4ccccc4)nnc3s2)c(Cl)cc1OCc1nn2c(Cc3ccccc3)nnc2s1: inactive
COc1ccc2c3c1OC1C(OC)(OC)CC4(C=C2)CN(C)CCC314 (stereo not given): inactive
ClC1=C(Cl)C2OC3C=CCC3OC2C(Cl)=C1Cl (stereo not given): inactive

Field: outcome | Entry: O=c1[nH]c(=O)n(C2OC(CO)C(N(O)Cc3ccc(F)cc3)C2O)cc1Br (stereo not given)
inactive

----------
system: HCT-116; test: NCI tumour cell line growth inhibition, 48 h
Calls of active or inactive are those of the source. Cut-off read from the data, not from the text of the source: active = GI50 up to about 1.1 µM and inactive = higher.
value type: GI50

Worked examples, 6 molecules total:
CC(=O)NC1C(OCc2ccccc2)OC(CO)C(O)C1OC(C)C(=O)NC(C)C(=O)NC(CCC(=O)NCCCCNc1c2ccccc2nc2cccc([N+](=O)[O-])c12)C(N)=O (stereo not given): 0.00748 µM (active)
N/C(S)=N/N=C/c1ncccc1O: 1.76 µM (inactive)
CCOC(=O)[C@@]12C(C)=CC(=O)O[C@]1(C)C1C(=O)NC(=O)C12 (stereo not given in full): > 100 µM (inactive)
CCOC1CCN(C(=O)c2ccccc2)O1 (stereo not given): > 10 µM (inactive)
C=C(C)[C@H]1C=C[C@@H](OC(=O)c2cccnc2)[C@@]23CO[C@@](C)([C@H](OC(=O)c4cccnc4)[C@@]4(OC(C)=O)C[C@H](C)[C@H](OCCC)[C@@H]4[C@H]2OC(C)=O)[C@H]13: > 15 µM (inactive)
CC1=NN(c2cccc(Cl)c2)C2(SCC(=O)N2c2nc3ccccc3s2)/C1=C\c1cccs1 (stereo not given): 20.6 µM (inactive)

Sample CCOc1ccc(/C=N\N2C(=O)c3ccccc3C2=O)cc1 ; GI50 observed: > 100 µM (inactive)

The recorded GI50 for entry CN(C)CC/C(=N\Nc1c(Cl)cccc1Cl)c1ccccc1 equals 15.3 µM (inactive)

Lab book: GI50 of COc1cc(C(=O)OCCn2[nH]c(-c3ccc(Cl)cc3)nc2=S)cc(OC)c1OC noted as > 100 µM (inactive)

----------
Below: a set of entries, each annotated with reported GI50.
tested on: Hs-578T; assay: NCI tumour cell line growth inhibition, 48 h
The source made the active and inactive calls. Cut-off read from the data, not from the text of the source: active = GI50 up to about 1.1 µM and inactive = higher.

Consider the reported GI50 for these compounds:
Cc1c(C#N)c(N)[nH]c(=S)c1C#N: > 100 µM (inactive)
Cc1nc2ccc(Cl)cc2c2c1CCS2: 28.6 µM (inactive)
O=S1(=O)OCCOS(=O)(=O)C1Cc1cccc2ccccc12: 29.9 µM (inactive)
O=C1CSC(c2ccccc2O)N1c1ccc(-n2c(-c3ccccc3)nc3ccccc3c2=O)cc1 (stereo unspecified): 23.4 µM (inactive)
O=C1C[C@@H](c2ccc(O)cc2)[C@@]2(O1)C(=O)O[C@H]([C@@H](O)CO)[C@@H]2O: > 100 µM (inactive)

Documented GI50 of CCCC1(CCC)c2cc(/C=N\O)ccc2-c2ccc(-c3ccc(C(C)(C)C)cc3)cc21 : 88.3 µM (inactive)

GI50 reading for CC(=O)NC1C(OCc2ccccc2)OC(CO)C(O)C1OC(C)C(=O)NC(C)C(=O)NC(CCC(=O)NCCCCNc1c2ccccc2nc2cccc([N+](=O)[O-])c12)C(N)=O (stereo unspecified) : 0.171 µM (active)

GI50 measured on Nc1ccc2c(c1)Nc1c3ccccc3nc3cccc-2c13 = 2.03 µM (inactive)

These entries and their values trace back to ChEMBL document CHEMBL1201862.
